The reported numbers originate from BindingDB's records for patent WO2025064535.

test target: UniProtKB Q96LB1
Sequence (Q96LB1 whole entry): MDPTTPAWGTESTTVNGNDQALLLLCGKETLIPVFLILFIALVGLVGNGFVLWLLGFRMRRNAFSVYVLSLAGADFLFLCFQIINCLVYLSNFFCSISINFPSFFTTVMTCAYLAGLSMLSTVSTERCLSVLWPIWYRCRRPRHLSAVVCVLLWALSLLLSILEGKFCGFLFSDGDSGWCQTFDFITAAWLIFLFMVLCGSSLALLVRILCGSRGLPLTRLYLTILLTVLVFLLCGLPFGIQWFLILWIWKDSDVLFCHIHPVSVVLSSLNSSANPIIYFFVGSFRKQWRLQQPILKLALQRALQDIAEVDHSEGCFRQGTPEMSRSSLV
assay protocol: LAD2 Degranulation Assay (Protocol 2)
pIC50: −log10 of the molar value.
experimental endpoint: pIC50

# test smiles, value qualifier, observed measurement
data = [
    ("C[C@@H](C(=O)Nc1nc2cc3c(cc2s1)OC(F)(F)O3)N1CCC[C@@H](c2cc[n+]([O-])cc2)C1", "<", 5.52),
    ("C[C@@H](C(=O)Nc1nc2cc3c(cc2s1)OCCO3)N1CCC(F)(F)[C@@H](c2ccc(=O)[nH]c2)C1", "=", 7.70),
    ("C[C@@H](C(=O)Nc1nc2cc3c(cc2s1)OC(F)(F)O3)N1CCC(F)(F)[C@H](c2c[nH]c(=O)c([C@@H](O)CO)c2)C1", "=", 8.13),
    ("C[C@@H](C(=O)Nc1nc2cc3c(cc2s1)OC(F)(F)O3)N1CCC(F)(F)[C@H](c2c[nH]c(=O)c(CO)c2)C1", "=", 7.18),
    ("C[C@@H](C(=O)Nc1nc2cc3c(cc2s1)OCCO3)N1CCC(F)(F)[C@H](c2c[nH]c(=O)cn2)C1", "=", 7.64),
    ("C[C@@H](C(=O)Nc1nc2cc3c(cc2s1)OC(F)(F)O3)N1CC[C@H](F)[C@@H](c2cc[n+]([O-])cc2)C1", "=", 7.14),
]

---

test target: Mas-related G-protein coupled receptor member X2 (Homo sapiens, UniProt Q96LB1)
assay protocol: MRGPRX2 Activity Assay
pIC50: −log10 of the molar value.

# test smiles, test target, value qualifier, pIC50
data = [
    ("C[C@@H](C(=O)Nc1nc2cc3c(cc2s1)OC(F)(F)O3)N1CCC(F)(F)[C@@H](c2c[nH]c(=O)c(CO)n2)C1", "Mas-related G-protein coupled receptor member X2 (Homo sapiens, UniProt Q96LB1)", "<", 4.76),
    ("C[C@@H](C(=O)Nc1nc2cc3c(cc2s1)OC(F)(F)O3)N1CCC(F)(F)[C@H](c2c[nH]c(=O)c(CN3CCC(F)(F)CC3)c2)C1", "Mas-related G-protein coupled receptor member X2 (Homo sapiens, UniProt Q96LB1)", "=", 6.77),
    ("C[C@H](C(=O)Nc1nc2cc3c(cc2s1)OCO3)N1CCC(F)(F)[C@@H](c2cc[n+]([O-])cc2)C1", "Mas-related G-protein coupled receptor member X2 (Homo sapiens, UniProt Q96LB1)", "=", 8.43),
    ("CNCc1cc([C@@H]2CN([C@@H](C)C(=O)Nc3nc4cc5c(cc4s3)OC(F)(F)O5)CCC2(F)F)c[nH]c1=O", "Mas-related G-protein coupled receptor member X2 (Homo sapiens, UniProt Q96LB1)", "=", 7.39),
    ("C[C@@H](C(=O)Nc1nc2cc3c(cc2s1)OC(F)(F)O3)N1CCC(F)(F)[C@H](c2ccc(=O)[nH]c2)C1", "Mas-related G-protein coupled receptor member X2 (Homo sapiens, UniProt Q96LB1)", "=", 7.82),
    ("C[C@@H](C(=O)Nc1nc2cc3c(cc2s1)OC(F)(F)O3)N1CCC(F)(F)[C@@H](n2ccc(=O)[nH]c2=O)C1", "Mas-related G-protein coupled receptor member X2 (Homo sapiens, UniProt Q96LB1)", "<", 4.52),
    ("C[C@@H](C(=O)Nc1nc2cc3c(cc2s1)OC(F)(F)O3)N1CCC(F)(F)[C@@H](c2c[nH]c(=O)c(CN3CCOCC3)c2)C1", "Mas-related G-protein coupled receptor member X2 (Homo sapiens, UniProt Q96LB1)", "<", 4.52),
    ("CNCc1cc([C@H]2CN([C@@H](C)C(=O)Nc3nc4cc5c(cc4s3)OC(F)(F)O5)CCC2(F)F)c[nH]c1=O", "Mas-related G-protein coupled receptor member X2 (Homo sapiens, UniProt Q96LB1)", "<", 4.52),
    ("C[C@@H](C(=O)Nc1nc2cc3c(cc2s1)OC(F)(F)O3)N1CCC(F)(F)[C@H](c2cc[n+]([O-])c([C@@H](O)CO)c2)C1", "Mas-related G-protein coupled receptor member X2 (Homo sapiens, UniProt Q96LB1)", "<", 4.52),
    ("C[C@@H](C(=O)Nc1nc2cc3c(cc2s1)OC(F)(F)O3)N1CC[C@@H](F)[C@H](c2cc[n+]([O-])cc2)C1", "Mas-related G-protein coupled receptor member X2 (Homo sapiens, UniProt Q96LB1)", "<", 4.52),
]
